Target: T1, human IL-18BP (human, UniProt O95998 31-194)
T1 construct: UniProt printed as 095998; also called hIL-18BP
T1 sequence: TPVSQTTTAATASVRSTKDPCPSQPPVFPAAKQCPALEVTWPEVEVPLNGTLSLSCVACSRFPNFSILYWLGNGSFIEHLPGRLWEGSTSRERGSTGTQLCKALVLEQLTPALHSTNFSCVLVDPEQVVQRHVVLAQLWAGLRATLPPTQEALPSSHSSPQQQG
Assay: BLI, apparent KD
PROPERTY_LABEL: pKd
Here pKd is given on a logarithmic scale as minus log10 of the concentration in mol/L.

Query :: Find the recorded pKd belonging to SA301a HC-Y96T (antibody, name in Kabat numbering, V domains shown, IgG1 kappa) VH: QVQLQESGPGLVKPSQTLSLTCTVSGYSITSDYNSHWIRQPPGKGLEWIGYIHYSGSTNYNPSLKSRVTISRDTSKNQFSLKLSSVTAADTAVYYCARNTGSIYVNYFDYWGQGTLVTVSS VL: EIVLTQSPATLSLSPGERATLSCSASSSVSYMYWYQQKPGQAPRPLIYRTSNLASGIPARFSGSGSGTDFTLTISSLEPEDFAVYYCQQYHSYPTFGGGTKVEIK and report it.
Result :: 9.21

New cases:
Query :: Find the recorded pKd belonging to SA301a HC-N95A (antibody, name in Kabat numbering, V domains shown, IgG1 kappa) VH: QVQLQESGPGLVKPSQTLSLTCTVSGYSITSDYNSHWIRQPPGKGLEWIGYIHYSGSTNYNPSLKSRVTISRDTSKNQFSLKLSSVTAADTAVYYCARAYGSIYVNYFDYWGQGTLVTVSS VL: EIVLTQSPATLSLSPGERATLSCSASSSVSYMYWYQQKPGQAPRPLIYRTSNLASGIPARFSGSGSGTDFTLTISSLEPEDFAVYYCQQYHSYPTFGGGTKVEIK and report it.
Result :: 7.34

Query :: Find the recorded pKd belonging to SA301a HC-G97V (antibody, name in Kabat numbering, V domains shown, IgG1 kappa) VH: QVQLQESGPGLVKPSQTLSLTCTVSGYSITSDYNSHWIRQPPGKGLEWIGYIHYSGSTNYNPSLKSRVTISRDTSKNQFSLKLSSVTAADTAVYYCARNYVSIYVNYFDYWGQGTLVTVSS VL: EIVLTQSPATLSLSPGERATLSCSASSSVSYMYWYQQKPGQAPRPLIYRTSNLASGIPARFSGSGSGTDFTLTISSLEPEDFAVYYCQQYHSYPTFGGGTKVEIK and report it.
Result :: 8.30
